- measurement-notes: qHTS for inhibitors of binding or entry into cells for Marburg Virus
- details: Marburg virus pseudotyped entry inhibition, cell reporter; series mostly up to 37.8 µM
Hit rate of the full screen: of about 300,000 compounds, about 5,400 (1.8%) were called active. Not shown: some 28% with an inconclusive outcome. Calls come from the whole dose curve; tested in HEK293 cells. For the sample, actives were picked, then their nearest neighbours and some compounds at random.
Respond with a class label; see TRUE (active), FALSE (inactive)

Fill in: this test's call for Cc1ccccc1CCNC(=O)C1CCC(=O)N(Cc2ccc(Cl)cc2)C1 (stereo not given) is ___
FALSE

Fill in: this test's call for Cc1ccc(C)c(C(C)NC(=O)C2CCCO2)c1 (stereo not given) is ___
FALSE

Fill in: this test's call for `CCC(=O)Nc1cccc(NC(=O)CSc2nnc(-c3ccc(NS(C)(=O)=O)cc3)n2C)c1` is ___
FALSE

Fill in: this test's call for `Cn1c(SCC(=O)Nc2cccc(NC(=O)c3cccs3)c2)nnc1-c1ccncc1` is ___
TRUE

Fill in: this test's call for COc1ccc(CNC(=O)C(C)NCc2ccccc2Cl)cc1 (stereo not given) is ___
FALSE

Fill in: this test's call for `Cc1ccc(NC(=O)CCCNC(=O)c2ccc(Cl)cc2)cc1S(=O)(=O)N1CCCCC1` is ___
FALSE

Fill in: this test's call for `O=C(Nc1ccccc1)C1CCN(C(=O)c2ccc(Br)cc2)CC1` is ___
FALSE

Fill in: this test's call for `CCC(=O)N(Cc1cc2cc(OC)ccc2[nH]c1=O)c1ccccc1C` is ___
FALSE

Fill in: this test's call for `COc1ccc2[nH]c(=O)c(CN(Cc3cccnc3)S(=O)(=O)c3ccccc3F)cc2c1` is ___
TRUE

Fill in: this test's call for `O=C(Nc1ccc(S(=O)(=O)N2CCOCC2)cc1)C1CCN(S(=O)(=O)c2ccc(Cl)cc2)CC1` is ___
FALSE

* * *

- measurement-notes: qHTS for inhibitors of binding or entry into cells for Marburg Virus
- details: Marburg virus pseudotyped entry inhibition, cell reporter; series mostly up to 37.8 µM
About 5,400 (1.8%) of roughly 300,000 compounds were called active. About 28% were inconclusive and are not listed. The call rests on the fitted dose curve; tested in HEK293 cells. Only a selection was taken, and actives are over-represented in it overall.
Respond with a class label; see class 1 = active, class 0 = inactive

Fill in: this test's call for NC(CSC1(c2ccccc2)c2ccccc2-c2ccccc21)C(=O)O (stereo unspecified) is ___
class 0

Fill in: this test's call for `O=C1C(=O)N(CCN2CCOCC2)[C@@H](c2ccccn2)/C1=C(/O)c1ccc(F)cc1` is ___
class 0

Fill in: this test's call for COc1ccc(S(=O)(=O)N2CCN(CC(=O)N3c4ccccc4CC3C)CC2)cc1OC (stereo unspecified) is ___
class 0

Fill in: this test's call for `Cc1cc(C(=O)N/N=C/c2ccccn2)c2ccccc2n1` is ___
class 0

Fill in: this test's call for CCN(CC)CCCC(C)n1c2nc(=O)[nH]c(=O)c-2nc2cc(Cl)ccc21 (stereo unspecified) is ___
class 1

Fill in: this test's call for CC(C(=O)c1ccc(-c2ccccc2)cc1)[n+]1cccc(Br)c1 (stereo unspecified) is ___
class 0

Fill in: this test's call for Cc1cc(NC(=O)C(C)SCC(=O)Nc2ccccc2N2CCCCC2)no1 (stereo unspecified) is ___
class 0

Fill in: this test's call for `COc1ccccc1CNC(=O)c1ccc(N(C)S(=O)(=O)c2ccc(C)cc2)cc1` is ___
class 0

Fill in: this test's call for `COc1ccc2c(c1O)-c1cccc3c1[C@@H](C2)N(C)CC3` is ___
class 1

Fill in: this test's call for `O=C(COc1ccc([N+](=O)[O-])cc1Cl)Nc1ccc2[nH]c(=O)[nH]c2c1` is ___
class 0

Fill in: this test's call for CCCCN1C2CCC1CC(OC(c1ccc(F)cc1)c1ccc(F)cc1)C2 (stereo unspecified) is ___
class 1

Fill in: this test's call for CC(=O)OC1CCC2C3CCC4=C(CC(F)C(=O)C4)C3CCC12C (stereo unspecified) is ___
class 0

Fill in: this test's call for `O=C(CCl)NNc1nc(-c2ccccc2)c2cc(Cl)ccc2n1` is ___
class 1

Fill in: this test's call for `CCCn1nc(NS(=O)(=O)c2ccc(F)cc2)c2cc3ccccc3nc21` is ___
class 0

Fill in: this test's call for `Cc1ccc(-c2nn(-c3ccccc3)cc2/C=N/NC(=O)c2ccc3c(c2)OCO3)cc1` is ___
class 0

Fill in: this test's call for CC(C)c1ccc(S(=O)(=O)N2CCN(C(=O)CN3C(=O)NC(C)(c4ccccc4)C3=O)CC2)cc1 (stereo unspecified) is ___
class 0

Fill in: this test's call for `Cc1cc(C)c2cc(CN(Cc3nnnn3Cc3ccc(F)cc3)C3CCCC3)c(=O)[nH]c2c1` is ___
class 0

Fill in: this test's call for `Cc1cc(-c2nnc(SCC(=O)Nc3ccc(F)cc3)n2N)n[nH]1` is ___
class 0

Fill in: this test's call for `COc1ccc(-c2nn(-c3ccccc3)cc2/C=N/Nc2ccccn2)cc1OC` is ___
class 1

Fill in: this test's call for `CCCc1cc(=O)[nH]c(SCC(=O)Nc2ccc(C(=O)Nc3ccccc3OC)cc2)n1` is ___
class 0

Fill in: this test's call for `Cc1ccc(-c2cc(C(=O)N/N=C/C=C/c3ccco3)c3ccccc3n2)cc1C` is ___
class 1
